This collection of values is drawn from paper PMC7822874.

Entries and their measured CC50 at 48 h follow.
- ASSAY_OVERVIEW: in vitro
- CONDITION_DESCRIPTION: human, HepG2 cells; n = 1

MOLECULE	UOM	CC50 at 48 h
O=C(c1ccc2[nH]ccc2c1)N1CCC2(CC1)NC(c1ccc(Br)cc1)=NO2	µM	24.3
CC(=O)c1cccc(N[S+](=O)([O-])c2cc(-c3cnc(C4CC4)o3)ccc2C)c1	µM	30.6
COc1ccccc1Nc1c2c(nc3ccc(NC(=O)/C=C/c4cccc(OC)c4OC)cc13)CCCC2	µM	30.6
CC(=O)NC(c1ccccc1)c1cc(Cl)c2cccnc2c1O (centres unmarked)	µM	12.2
CC(C)Nc1ccc(Nc2ccnc3cc4ccccc4cc23)cc1	µM	27.3

----------
Entries and their measured Average HepG2 3 µM response( %) follow.
- Test system: HepG2-A16-CD81EGFP cells
- CONDITION_DESCRIPTION: HepG2; the header list (r10) describes it as the 1 µM dose, averaged response (percent)

STRUCTURE_SMILES_STRING	UOM	Average HepG2 3 µM response( %)
CCCCn1c2c(c(=N)c3c1CCC3)CCC2	%	110
Cc1cc(Cl)c(S(=O)(=O)N2CCN(c3ccccn3)CC2)cc1OCC(=O)NC1CCCCC1	%	93
Cc1cc(Nc2cccc(C(F)(F)F)c2)nc2ccc(NC(=O)c3cncc(Br)c3)cc12	%	107

----------
- System: Plasmodium falciparum Dd2 asexual blood stage parasites
- ASSAY_OVERVIEW: microbe, parasite or virus in culture
- Parameters: species or system Plasmodium falciparum Dd2 in human erythrocytes; single determination (one 11-point concentration-response curve)
- CONDITION_DESCRIPTION: Plasmodium falciparum, DD2, Erythrocyte, 72 h; read-out: AC50
RESULT_TYPE: log10 of AC50 (log10 of the value in µM)

MOLECULE	RESULT_TYPE	ENDPOINT_RESULT
CCn1c(SCc2ccc(C#N)cc2)nnc1-c1ccc(S(=O)(=O)N2CCCCC2)cc1	log10 of AC50	0.82
CCCCn1c(=N)c(C(=O)NC2CCCCC2)cc2c(=O)n3cccc(C)c3nc21	log10 of AC50	0.18
CC(C)N1C(=S)N(Cc2ccco2)C(=O)C1CC(=O)Nc1ccccc1 (centres unmarked)	log10 of AC50	0.23
Cc1ccc(Cl)cc1N1CCN(Cc2cc3c(cc2O)CCC3)CC1	log10 of AC50	-0.73
Fc1cccc(NC(S)=NNc2c3ccccc3nc3ccccc23)c1	log10 of AC50	1.18
COc1cccc(N=C(S)N2CCN(S(=O)(=O)c3ccc(F)cc3)CC2)c1	log10 of AC50	0.42
COc1ccc(/C=N/Nc2cc(C)nc(-n3nc(C)cc3C)n2)c(OC)c1	log10 of AC50	0.73
O=C(Nc1ccc2c(N3CCOCC3)ncnc2c1)c1cccc(Cl)c1	log10 of AC50	0.67

----------
- ASSAY_OVERVIEW: in vitro
- CONDITION_DESCRIPTION: human, hepg2 cells
Label key: true (1) means CC50 at 48 h under 30 µM; false (0) means CC50 at 48 h of 30 µM or more.

COMPOUND	CATEGORY
CCc1ccc([S+](=O)([O-])c2nnn3c2nc(Nc2ccc(F)cc2)c2cc(Cl)ccc23)cc1	false (0)
O=C1NCN(c2ccccc2)C12CCN(CCCC(c1ccc(F)cc1)c1ccc(F)cc1)CC2	false (0)
Cc1noc(C)c1-c1cc2c(cc(-c3ccccc3)n2C)c(-c2ccnn2C)n1	false (0)
CC(C)(C)c1ccc(-c2cc(C[C@H]3CNCC[C@H]3CC(=O)N3CCN(c4ccccn4)CC3)no2)cc1	false (0)
N#Cc1ccc(NC(=O)Nc2ccc(Cl)cc2)cc1	false (0)
CCN1CCN(c2cc(C)c3cc(NC(=O)/C=C/c4ccc(C)cc4)ccc3n2)CC1	false (0)
C/C(=N\Nc1ncnc2sc(C)c(C)c12)c1ccccn1	true (1)
CC(C(=O)N1CCCN(c2cc(-c3ccc(Cl)cc3)n[nH]2)CC1)c1ccccc1 (stereo not shown)	false (0)
Cc1ccc2nc(C)cc(Nc3ccc([N+](=O)[O-])cc3)c2c1	false (0)
COc1ccc(/C=C/C(=O)Nc2ccc3nc4c(c(Nc5ccccc5OC)c3c2)CCCC4)cc1	false (0)
CCN1C(=O)C2(CCN([S+](=O)([O-])c3ccc(Cl)cc3C)CC2)c2ccccc21	false (0)
c1ccc2cc3c(NCCN4CCOCC4)ccnc3cc2c1	false (0)
O=C(Nc1ccc(Cl)cc1)c1nc2c(o1)CCN(Cc1ccc(F)cc1F)CC2	false (0)
CN(C)CC(CCC(CN(C)C)C(O)(c1ccccc1)c1ccccc1)C(O)(c1ccccc1)c1ccccc1 (stereo not shown)	false (0)
Oc1cc(NCc2ccccc2)cc2cccnc12	false (0)
COc1cc(C2CC(=O)N(Cc3ccc(F)cc3)c3ccccc3S2)cc(OC)c1OC (stereo not shown)	true (1)
Cc1cc(Nc2ccc(Cl)cc2)nc(NCc2ccccc2)n1	false (0)
COc1ccc(CCN2CCC(Nc3nc4ccccc4n3Cc3ccc(F)cc3)CC2)cc1	false (0)
Cc1nc(-c2ccccn2)nc(N(C)c2ccccc2)c1Cl	true (1)
C[S+](=O)([O-])N1CCC(OC2CCN(C(=O)Nc3cc(F)ccc3F)CC2)CC1	false (0)
CC1(C)Cc2ccccc2C2=NNC(=O)C2=N1	false (0)
O=C(Nc1nc(-c2ccccn2)cs1)Nc1ccc(F)cc1F	true (1)
